What Population Normal (%) was measured for each of the following?
Test system: HEK-293T
test-method-notes: Multiplex assay against HEK293T
Type: toxicity, cell-based
condition-parameters: human, 48 h, 10 µM, compound concentration 10 uM, replicate 1

CSc1ccccc1N1CCN(CCCCCC(=O)NC2CCCc3ccccc32)CC1.Cl (centres undefined)	71%
CCOc1c2c(c(OCC)c3ncccc13)CN(c1ccc(CS(=O)(=O)NC(=O)Cc3ccccc3OC)cc1C)C2=O	95%
COc1c(C)cc(NC(=O)c2nn(Cc3ccc(F)cc3)c3c2CN(C(=O)c2ccc[nH]2)C[C@]3(C)C(N)=O)cc1C	85%
Cc1ccc(/C(=C\CN2CCCC2)c2ccccn2)cc1 [TRIPROLIDINE]	93%
CCCC(CCC)C(=O)O [VALPROIC ACID]	96%
N[C@@]1(C(=O)O)CO[C@H]2[C@H](C(=O)O)[C@H]21 [LY-379268]	95%
Cc1ccc(F)cc1C(=O)Nc1ccc(C(=O)N2Cc3cccn3Cc3ccccc32)c(Cl)c1 [LIXIVAPTAN]	92%
COc1ccc2c(c1)C(C(=O)N(Cc1ccc(N(C)C)cc1)c1ccc(C(C)C)cc1)CCC2.Cl (centres undefined)	90%

Pending compound:
Ask: Provide one value: measured Population Normal (%) of Cc1ccc(C(C)(O)c2nc3ccccc3s2)c(C)c1 (centres undefined)
Reply: 97%
